Hello, the source for this data is ChEMBL document CHEMBL1697781, in case you need it.

Entries annotated with measured SGOT Increase - Index Value
Tested on: Hepatotoxicity
testProtocol: FDA HLAED, serum glutamic oxaloacetic transaminase (SGOT) increase
runParameters: human
Could you respond with only the numeric value?

Query SGOT Increase - Index Value for CC1(C)C(C=C(Cl)Cl)C1C(=O)OCc1cccc(Oc2ccccc2)c1 (configuration not stated) [PERMETHRIN]
0

For the next question, use this compound.
Fill in SGOT Increase - Index Value for record O=C(O)c1cc(/N=N/c2ccc(O)c(C(=O)O)c2)ccc1O [OLSALAZINE]
2.2

---

Test system: Hepatotoxicity
testProtocol: FDA HLAED, serum glutamic oxaloacetic transaminase (SGOT) increase
runParameters: human
measuredParameter: SGOT Increase - Number of Reports

Please supply the value of reported SGOT Increase - Number of Reports for the item Clc1ccc(CCC(Cn2ccnc2)Sc2c(Cl)cccc2Cl)cc1 (configuration not stated)
< 4

Note SGOT Increase - Number of Reports for the compound shown: CC(C)n1c(/C=C/C(O)CC(O)CC(=O)O)c(-c2ccc(F)cc2)c2ccccc21 (configuration not stated)
>= 4

Give me measured SGOT Increase - Number of Reports, please, for this compound: `O=C1CN=C(c2ccccc2)c2cc(Cl)ccc2N1CC(F)(F)F`
< 4

Give me measured SGOT Increase - Number of Reports, please, for this compound: `Nc1nc2ccc(OC(F)(F)F)cc2s1`
< 4

Report measured SGOT Increase - Number of Reports; entry is `C[C@@H]1C[C@H]2[C@@H]3C[C@H](F)C4=CC(=O)C=C[C@]4(C)[C@@]3(F)[C@@H](O)C[C@]2(C)[C@@]1(O)C(=O)SCF`
< 4

Next:
For the compound `Nc1ccn(C[C@@H](CO)OCP(=O)(O)O)c(=O)n1.O.O` , report SGOT Increase - Number of Reports.
< 4

Read off the recorded SGOT Increase - Number of Reports for `CO[C@H]1/C=C/O[C@@]2(C)Oc3c(C)c(O)c4c(O)c(c(/C=N/N5CCN(C)CC5)c(O)c4c3C2=O)NC(=O)/C(C)=C\C=C\[C@H](C)[C@H](O)[C@@H](C)[C@@H](O)[C@@H](C)[C@H](OC(C)=O)[C@@H]1C`
>= 4

Using known records, supply SGOT Increase - Number of Reports for `Cc1cc2c(s1)Nc1ccccc1N=C2N1CCN(C)CC1`
>= 4

Could you please provide reported SGOT Increase - Number of Reports for `CCn1cc(C(=O)O)c(=O)c2cc(F)c(N3CCNCC3)nc21` ? Thanks!
< 4

Provide one value: measured SGOT Increase - Number of Reports of `Cc1ccccc1N1CCN(CCc2nnc3n2CCCC3)CC1`
< 4

Look up and report measured SGOT Increase - Number of Reports for this entry: COc1ccc(C(CN(C)C)C2(O)CCCCC2)cc1 (configuration not stated)
>= 4
